Where do these numbers come from? They come from patent US20230374132A1.

assayed target: T1, cynomolgus monkey CD3 E&D complex protein (Sino Biological Inc., CT032-00323H) (cynomolgus monkey, UniProt Q95LI5 22-117; Q95LI8 22-105)
T1 construct: bought heterodimer
T1 sequence (Q95LI5 22-117, chain 1 of 2): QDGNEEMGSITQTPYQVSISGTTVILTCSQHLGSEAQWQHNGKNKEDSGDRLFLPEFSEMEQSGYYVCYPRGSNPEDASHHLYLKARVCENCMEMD
T1 sequence (Q95LI8 22-105, chain 2 of 2): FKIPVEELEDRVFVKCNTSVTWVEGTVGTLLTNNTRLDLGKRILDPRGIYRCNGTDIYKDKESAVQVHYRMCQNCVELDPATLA
test description: BLI, antibody on sensor
Each entry below carries its recorded koff.
Record the value in s⁻¹, omitting the unit from your answer.

hzsp34.28 (antibody, human IgG1, kappa, L234A L235A, V domains shown, IgG1 L234A L235A, kappa) VH: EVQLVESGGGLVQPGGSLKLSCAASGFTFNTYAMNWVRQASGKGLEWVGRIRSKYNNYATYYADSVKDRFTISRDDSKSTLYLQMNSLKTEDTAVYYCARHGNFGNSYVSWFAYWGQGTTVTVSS VL: EIVMTQSPATLSVSPGERATLSCRSSTGAVTTSNYANWYQQKPGQAPRLLIYGTNKRAPGIPARFSGSGSGTEFTLTISSLQSEDFAVYYCALWYSNLWVFGQGTKLTVLR; 0.00117
hzsp34.43 (antibody, human IgG1, kappa, L234A L235A, V domains shown, IgG1 L234A L235A, kappa) VH: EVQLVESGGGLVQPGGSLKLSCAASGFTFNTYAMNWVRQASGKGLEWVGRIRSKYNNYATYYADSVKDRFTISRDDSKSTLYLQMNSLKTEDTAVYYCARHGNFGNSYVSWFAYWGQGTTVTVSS VL: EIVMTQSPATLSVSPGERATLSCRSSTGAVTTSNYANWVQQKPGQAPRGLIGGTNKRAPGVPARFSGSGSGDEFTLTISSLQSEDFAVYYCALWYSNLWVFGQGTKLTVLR; 0.00201

We next turn to a different binder, shown below.
Recorded koff (binder sp34 (antibody, human IgG1, lambda, L234A L235A, V domains shown, mouse variable regions on human IgG1 L234A L235A and lambda constant regions; also called chimeric antibody sp34; mouse sp34) VH: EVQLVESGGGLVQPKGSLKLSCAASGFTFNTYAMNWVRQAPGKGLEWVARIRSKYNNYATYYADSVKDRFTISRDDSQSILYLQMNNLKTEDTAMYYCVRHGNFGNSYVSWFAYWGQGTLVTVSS VL: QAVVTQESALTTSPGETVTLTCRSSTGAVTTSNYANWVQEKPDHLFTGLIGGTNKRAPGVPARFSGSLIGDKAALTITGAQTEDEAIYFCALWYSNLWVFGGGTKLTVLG ): 0.000795
